- test_system: extracytoplasmic domain of M. tuberculosis PknB (ED-PknB, PASTA domains) (Mycobacterium tuberculosis, UniProt P9WI81)
- Construct: GST (N, cleaved yes); made in house; host or cells: Escherichia coli BL21 (DE3)
- Sequence (P9WI81 354-626): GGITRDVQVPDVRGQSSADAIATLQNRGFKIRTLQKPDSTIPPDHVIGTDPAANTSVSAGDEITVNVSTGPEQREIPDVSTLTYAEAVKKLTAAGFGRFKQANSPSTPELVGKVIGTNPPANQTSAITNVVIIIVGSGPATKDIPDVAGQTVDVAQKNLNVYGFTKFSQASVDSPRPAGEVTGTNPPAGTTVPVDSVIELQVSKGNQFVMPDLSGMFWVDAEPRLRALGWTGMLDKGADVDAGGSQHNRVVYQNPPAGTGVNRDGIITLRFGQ
- assay_overview: Surface plasmon resonance (Biacore) binding of synthetic muropeptides to immobilized ED-PknB
- test_context: SPR Biacore T100, ED-PknB on CM-5 chip (5,000 RU), HBS-EP pH 7.4, 25°C, two-state binding model; Table 1 and text
*1 amine or outer side, *2 acyl side, *3 side chain or, on linkers, in order; H or OH if unused. Where a SMILES comes first, the peptide text is derived from it. [ ]: non-standard residue; d: D form. Mur = C[C@@H](O[C@H]1[C@H](O)[C@@H](CO)OC(O)[C@@H]1N[*:1])C(=O)[*:2]; d(isoGln) = NC(=O)[C@@H](CCC(=O)[*:2])N[*:1]
endpoint: Kd

Recorded Kd, per entry:
# compound, Kd
records = [
    ("CC(=O)N[C@H]1C(O)O[C@H](CO)[C@@H](O)[C@@H]1O[C@H](C)C(=O)N[C@@H](C)C(=O)N[C@H](CCC(=O)N[C@@H](CCCCN)C(=O)N[C@H](C)C(=O)N[C@H](C)C(N)=O)C(N)=O (stereo partly drawn) [MPP-Lys (D-Ala) 3a] (Ac-[Mur]A[d(isoGln)]K[dA][dA]-NH2)", "> 500 µM"),
    ("CC(=O)NCCCC[C@H](NC(=O)CC[C@@H](NC(=O)[C@H](C)NC(=O)[C@@H](C)O[C@H]1[C@H](O)[C@@H](CO)OC(O)[C@@H]1NC(C)=O)C(N)=O)C(=O)N[C@H](C)C(N)=O (stereo partly drawn) [MTrP-Lys (amide) NHAc 2b]", "> 500 µM"),
]

Shift focus to the following entry.
Consider the compound CC(=O)N[C@H]1C(O)O[C@H](CO)[C@@H](O)[C@@H]1O[C@H](C)C(=O)N[C@@H](C)C(=O)N[C@H](CCC(=O)N[C@@H](CCCCN)C(=O)N[C@H](C)C(=O)NCC(N)=O)C(N)=O (stereo partly drawn) [MPP-Lys (Gly) 3b] (Ac-[Mur]A[d(isoGln)]K[dA]G-NH2) . State its measured Kd.
> 500 µM

---

- test_system: extracytoplasmic domain of M. tuberculosis PknB (ED-PknB, PASTA domains) (Mycobacterium tuberculosis, UniProt P9WI81)
- Construct: GST (N, cleaved yes); made in house; host or cells: Escherichia coli BL21 (DE3)
- assay_overview: Surface plasmon resonance (Biacore) binding of synthetic muropeptides to immobilized ED-PknB
- Parameters: unit not given here
- test_context: Table S1; SPR, two-state binding model, 25°C
Each entry below carries its reported ka1.

# compound, endpoint, meas_value
records = [
    ("CC(=O)N[C@H]1C(O)O[C@H](CO)[C@@H](O)[C@@H]1O[C@H](C)C(=O)N[C@@H](C)C(=O)N[C@H](CCC(=O)N[C@@H](CCC[C@@H](N)C(=O)O)C(N)=O)C(N)=O (stereo partly drawn) [MTP-DAP (amide/acid) 5]", "ka1", 5577),
    ("CC(=O)N[C@H](CCC[C@H](NC(=O)CC[C@@H](NC(=O)[C@H](C)NC(=O)[C@@H](C)O[C@H]1[C@H](O)[C@@H](CO)OC(O)[C@@H]1NC(C)=O)C(N)=O)C(=O)N[C@H](C)C(N)=O)C(=O)O (stereo partly drawn) [MTrP-DAP(amide/acid)NHAc 6e]", "ka1", 354.2),
    ("CC(=O)N[C@H]1C(O)O[C@H](CO)[C@@H](O)[C@@H]1O[C@H](C)C(=O)N[C@@H](C)C(=O)N[C@H](CCC(=O)N[C@@H](CCC[C@@H](N)C(=O)O)C(=O)N[C@H](C)C(N)=O)C(N)=O (stereo partly drawn) [MTrP-DAP (amide/acid) 6a]", "ka1", 3451),
    ("CC(=O)N[C@H]1C(O)O[C@H](CO)[C@@H](O)[C@@H]1O[C@H](C)C(=O)N[C@@H](C)C(=O)N[C@H](CCC(=O)N[C@@H](CCC[C@@H](N)C(=O)O)C(=O)N[C@H](C)C(=O)N[C@H](C)C(N)=O)C(N)=O (stereo partly drawn) [MPP-DAP (amide/acid) 7]", "ka1", 4316),
    ("CC(=O)N[C@H]1C(O)O[C@H](CO)[C@@H](O)[C@@H]1O[C@H](C)C(=O)N[C@@H](C)C(=O)N[C@H](CCC(=O)N[C@@H](CCC[C@@H](N)C(=O)O)C(=O)N[C@H](C)C(N)=O)C(=O)O (stereo partly drawn)", "ka1", 1931),
]

// switching to the query compound
Output ka1 of CC(=O)N[C@H]1C(O)O[C@H](CO)[C@@H](O)[C@@H]1O[C@H](C)C(=O)N[C@@H](C)C(=O)N[C@H](CCC(=O)N[C@@H](CCC[C@@H](N)C(N)=O)C(=O)N[C@H](C)C(N)=O)C(N)=O (stereo partly drawn) [MTrP-DAP (amide/amide) 6c]
342.8
